assay: differential killing of epithelial or mesenchymal cells, primary screen, imaging, PC-3E GFP, TEM4-18 mCherry, co-culture (AID 1345086); details: imaging cell counts, measured here: epithelial PC-3E GFP cell survival, at 1 µM;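 note: cells exposed to compound for 72 h before imaging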
Each record here notes measured normalised cell number.
Lab note: record the figure alone, no unit after it.

In the examples that follow, each entry is paired with its recorded normalised cell number.
COc1cc(CNC(=O)CCCC/C=C/C(C)C)ccc1O    1.14
N#Cc1ccc2c(c1)N(CCCN1CCC(O)CC1)c1ccccc1S2    0.87

So for COc1ccc(-c2coc3c(O)c(OC)ccc3c2=O)cc1 , the logged normalised cell number turned out to be 1.1

So for CCOc1ccc(NC(=O)CC(C)O)cc1 (centres undefined) , the logged normalised cell number turned out to be 0.83

All figures here come from PubChem BioAssay.
